system.tested: chymotrypsin (Bos taurus, UniProt P00766)
test.method.notes: Protease inhibition assay: chymotrypsin
Format: biochemical
assay.endpoint: IC50 (nM)
Give bare numbers, in nM.

// worked examples, IC50 included
For the compound `CC[C@H](C)[C@@H]1NC(=O)[C@H](Cc2ccccc2)N(C)C(=O)[C@H](C(C)C)N2C(=O)[C@H](CC[C@H]2O)NC(=O)[C@H](C[C@H]2C=C[C@H](O)CC2)NC(=O)[C@@H](NC(=O)[C@H](CCC(N)=O)NC(=O)[C@H](O)Cc2ccc(O)cc2)[C@@H](C)OC1=O` , report IC50.
220

For the compound `CCCCCC(=O)N[C@@H](CC(=O)OC)C(=O)N[C@@H]1C(=O)N[C@@H](CCCNC(=N)N)C(=O)N[C@H]2CC[C@@H](OC)N(C2=O)[C@@H]([C@@H](C)CC)C(=O)N(C)[C@@H](Cc2ccc(O)c(Cl)c2)C(=O)N[C@@H]([C@H](C)CC)C(=O)O[C@@H]1C` , report IC50.
630

Query compound follows.
For the compound `CC[C@H](C)[C@H]1C(=O)N(C)[C@@H](Cc2ccccc2)C(=O)N[C@@H](C(C)C)C(=O)O[C@H](C)[C@H](NC(=O)[C@H](CC(N)=O)NC(=O)[C@H](O)Cc2ccc(O)cc2)C(=O)N[C@@H](CC(C)C)C(=O)N[C@H]2CC[C@@H](OC)N1C2=O` , report IC50.
870
